- Target Desc: GABA transporter 4 (Mus musculus, UniProt P31650)
- Sequence (P31650 whole entry): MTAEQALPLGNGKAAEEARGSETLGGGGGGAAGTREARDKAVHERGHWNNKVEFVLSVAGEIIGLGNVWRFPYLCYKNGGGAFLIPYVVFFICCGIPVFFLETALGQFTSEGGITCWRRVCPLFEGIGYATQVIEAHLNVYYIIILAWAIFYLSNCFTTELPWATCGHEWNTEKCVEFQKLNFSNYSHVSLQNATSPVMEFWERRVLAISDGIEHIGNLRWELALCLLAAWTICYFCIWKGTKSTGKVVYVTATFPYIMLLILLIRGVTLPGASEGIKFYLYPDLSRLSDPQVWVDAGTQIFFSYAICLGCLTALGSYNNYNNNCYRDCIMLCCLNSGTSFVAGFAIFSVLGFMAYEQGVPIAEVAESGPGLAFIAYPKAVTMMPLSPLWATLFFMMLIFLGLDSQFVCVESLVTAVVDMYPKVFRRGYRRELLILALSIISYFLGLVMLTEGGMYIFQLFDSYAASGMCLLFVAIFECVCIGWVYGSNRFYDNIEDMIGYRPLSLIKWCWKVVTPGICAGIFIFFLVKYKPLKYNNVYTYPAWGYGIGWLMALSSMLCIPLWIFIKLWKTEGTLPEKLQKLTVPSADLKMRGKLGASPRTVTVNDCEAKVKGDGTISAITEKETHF
- Protocol Notes: Inhibition of [3H]GABA uptake at mouse GAT4 expressed in HEK293 cells after 3 mins by scintillation counting analysis
- Type: cell-based
- Condition Details: read-out: IC50
pIC50: −log10 of the molar value.
Answer each item with its documented pIC50.

Could I get pIC50 for every one of these entries?
1. Cc1ccsc1C(=CCCN(C)C1CCCc2o[nH]c(=O)c21)c1sccc1C (configuration not stated)
2. CN[C@H]1CCCC[C@H]1C(=O)O (relative stereo)

A:
1. < 3.52
2. < 2.52

====

- Target Desc: GABA transporter (Mus musculus)
- Protocol Notes: Inhibition of [3H]GABA uptake in mouse astrocytes after 3 mins by scintillation counting analysis
Measurement Name: IC50

Worked cases, IC50 given:
CN[C@@H]1CCCC[C@H]1C(=O)O (relative stereo); > 300 µM
CNC1CCCc2onc(O)c21 (stereo not drawn); 48 µM

Turning now to a further record.
compound CN[C@H]1CCCC[C@H]1C(=O)O (relative stereo) , IC50 observed: > 300 µM

====

- Target Desc: GABA transporter 2 (Mus musculus)
- Sequence (P31651 whole entry): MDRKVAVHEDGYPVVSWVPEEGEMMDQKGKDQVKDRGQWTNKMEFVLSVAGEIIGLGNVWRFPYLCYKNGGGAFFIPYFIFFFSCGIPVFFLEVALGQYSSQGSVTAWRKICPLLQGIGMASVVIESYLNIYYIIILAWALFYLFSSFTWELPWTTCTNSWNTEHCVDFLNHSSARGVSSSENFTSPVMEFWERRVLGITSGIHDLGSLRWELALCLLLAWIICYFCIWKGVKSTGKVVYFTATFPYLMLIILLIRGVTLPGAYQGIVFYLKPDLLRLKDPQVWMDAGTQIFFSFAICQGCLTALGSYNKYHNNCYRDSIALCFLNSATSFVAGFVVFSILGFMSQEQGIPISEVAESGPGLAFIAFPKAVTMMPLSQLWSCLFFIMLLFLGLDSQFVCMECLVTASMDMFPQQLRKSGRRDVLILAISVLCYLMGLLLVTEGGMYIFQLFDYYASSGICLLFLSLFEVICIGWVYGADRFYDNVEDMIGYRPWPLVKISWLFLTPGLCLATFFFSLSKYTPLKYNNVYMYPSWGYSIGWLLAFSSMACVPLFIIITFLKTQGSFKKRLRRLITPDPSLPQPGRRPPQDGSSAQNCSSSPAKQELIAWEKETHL
- Protocol Notes: Inhibition of [3H]GABA uptake at mouse GAT2 expressed in HEK293 cells after 3 mins by scintillation counting analysis
pIC50: −log10 of the molar value.
For each of the compounds below, state its pIC50.

Please review the following examples before continuing.
Cc1ccsc1C(=CCCN(C)C1CCCC=C1C(=O)O)c1sccc1C (stereo not drawn); 4.35
CN[C@@H]1CCCC[C@H]1C(=O)O (relative stereo); < 2.52

Moving on to the next compound.
response.value for CNC1CCCc2onc(O)c21 (stereo not drawn) (field: pIC50) = < 2.52

====

- Target Desc: Sodium- and chloride-dependent GABA transporter 1 (Mus musculus, UniProt P31648)
- Protocol Notes: Inhibition of [3H]GABA uptake at mouse GAT1 expressed in HEK293 cells after 3 mins by scintillation counting analysis
For each record, write down the corresponding pIC50.
One number for each entry, as −log10 of the molar value.

Cc1ccsc1C(=CCCN(C)C1C2C=CC(C2)C1C(=O)O)c1sccc1C (stereo unspecified); 4.40
CNC1CCCC=C1C(=O)O (stereo unspecified); 3.37

Kindly consider the entry below.
For record Cc1ccsc1C(=CCCN1CCC[C@@H](C(=O)O)C1)c1sccc1C the listed pIC50 is 6.10
